Cited source for all entries: paper PMC3617406

# target_desc: human ASBT (Homo sapiens)
# Sequence (Q12908 whole entry): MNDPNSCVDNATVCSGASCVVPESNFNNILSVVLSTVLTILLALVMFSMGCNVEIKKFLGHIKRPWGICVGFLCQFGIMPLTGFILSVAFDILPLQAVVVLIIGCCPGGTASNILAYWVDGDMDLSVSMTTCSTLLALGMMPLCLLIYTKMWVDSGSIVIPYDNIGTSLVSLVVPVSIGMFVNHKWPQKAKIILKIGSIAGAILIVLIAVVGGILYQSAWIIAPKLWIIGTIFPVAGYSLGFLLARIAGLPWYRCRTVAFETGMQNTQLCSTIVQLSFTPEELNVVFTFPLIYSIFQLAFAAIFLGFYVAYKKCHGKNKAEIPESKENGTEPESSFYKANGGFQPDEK
# Format: cell-based
# condition_set: read-out: Estimated Ki for ASBT
Exercise: state measured potency estimated from few doses for each of the compounds provided.
Enter your answer as a number in µM; do not include the unit.

Query: Any idea what its potency estimated from few doses is? The compound is C[C@]12C=CC(=O)C=C1CC[C@@H]1[C@@H]2[C@@H](O)C[C@@]2(C)[C@H]1CC[C@]2(O)C(=O)CO [Prednisolone]
Result: 89.2

Query: Fill in the blank: the reported potency estimated from few doses of COc1ccc([C@@H]2Sc3ccccc3N(CCN(C)C)C(=O)[C@@H]2OC(C)=O)cc1 [Diltiazem] is ____.
Result: 237

Query: Given the entry Cc1ccc(NC(=O)c2ccc(CN3CCN(C)CC3)cc2)cc1Nc1nccc(-c2cccnc2)n1 [Imatinib] , report its measured potency estimated from few doses.
Result: 177

Query: potency estimated from few doses lookup needed for C[C@H]1[C@H](NC(=O)/C(=N\OC(C)(C)C(=O)O)c2csc(N)n2)C(=O)N1S(=O)(=O)O [Aztreonam] , thanks.
Result: 1420

====

A set of molecules tested on human NTCP (Homo sapiens, UniProt Q14973), with measured pKi:
Note: pKi values are expressed as the negative base-10 logarithm of concentration in M.

Query: I'd like to know its pKi. The molecule in question is CCCC1O[C@@H]2C[C@H]3[C@@H]4CCC5=CC(=O)C=C[C@]5(C)[C@H]4[C@@H](O)C[C@]3(C)[C@]2(C(=O)CO)O1 (stereo partly shown) [Budesonide]
Result: 3.66

Query: I would be grateful if you could share the reported pKi for CC(C)OC(=O)C(C)(C)Oc1ccc(C(=O)c2ccc(Cl)cc2)cc1 [Fenofibrate] .
Result: 3.89

Query: Quick check: pKi of `CN1CCN(CCCN2c3ccccc3Sc3ccc(Cl)cc32)CC1` ?
Result: 3.68

Query: Please report the recorded pKi for COc1cc2nc(N3CCN(C(=O)C4COc5ccccc5O4)CC3)nc(N)c2cc1OC (stereo not shown) .
Result: 4.45

====

# target_desc: human NTCP (Homo sapiens)
# Sequence (Q14973 whole entry): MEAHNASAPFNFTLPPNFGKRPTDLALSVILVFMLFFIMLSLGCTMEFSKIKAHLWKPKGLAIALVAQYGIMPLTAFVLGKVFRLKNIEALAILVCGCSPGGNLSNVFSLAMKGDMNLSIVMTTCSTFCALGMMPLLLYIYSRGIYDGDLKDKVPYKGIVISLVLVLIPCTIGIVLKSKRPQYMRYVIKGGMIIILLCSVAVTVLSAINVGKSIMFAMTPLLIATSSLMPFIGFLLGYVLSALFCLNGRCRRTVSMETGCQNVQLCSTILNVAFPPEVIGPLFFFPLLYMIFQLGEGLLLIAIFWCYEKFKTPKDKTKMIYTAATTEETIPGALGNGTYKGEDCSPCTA
# Type: cell-based
# condition_set: read-out: Estimated Ki for NTCP
Where a name gives a salt, the structure may show the parent alone.
property_measured: potency estimated from few doses

Query: # lookup: potency estimated from few doses of CCN(CC)CCNC(=O)c1ccc(N)cc1 [Procainamide HCl]
Result: 384 µM

Query: Param item = COC(=O)C1=C(C)NC(C)=C(C(=O)OC(C)C)C1c1cccc2nonc12 (stereo not shown) ; retrieve measured potency estimated from few doses.
Result: 99.5 µM

Query: I am curious: what potency estimated from few doses value has been reported for `CCCCC(=O)N(Cc1ccc(-c2ccccc2-c2nnn[nH]2)cc1)[C@H](C(=O)O)C(C)C` ?
Result: > 100 µM

Query: So what does the record say about potency estimated from few doses for `Nc1nc(NC2CC2)c2ncn([C@H]3C=C[C@@H](CO)C3)c2n1` ?
Result: 1290 µM

Query: Using the record for CCC(C)n1ncn(-c2ccc(N3CCN(c4ccc(OCC5COC(Cn6cncn6)(c6ccc(Cl)cc6Cl)O5)cc4)CC3)cc2)c1=O (stereo not shown) , report its potency estimated from few doses.
Result: 77.1 µM

Query: Item under review: CCCC1O[C@@H]2C[C@H]3[C@@H]4CCC5=CC(=O)C=C[C@]5(C)[C@H]4[C@@H](O)C[C@]3(C)[C@]2(C(=O)CO)O1 (stereo partly shown) [Budesonide] . Reported potency estimated from few doses?
Result: 264 µM

Query: potency estimated from few doses lookup needed for CCCNCC(O)COc1ccccc1C(=O)CCc1ccccc1 (stereo not shown) [Propafenone HCl] , thanks.
Result: 402 µM

Query: Requested field: potency estimated from few doses. Item: COc1ccc2[nH]c([S+]([O-])Cc3ncc(C)c(OC)c3C)nc2c1 (stereo not shown)
Result: > 100 µM

Query: Query (compound): `COC(=O)[C@@H]1[C@H]2C[C@H]3c4[nH]c5ccccc5c4CCN3C[C@@H]2CC[C@@H]1O` ; field requested: potency estimated from few doses
Result: > 100 µM

Query: Given `CN/C(=N/CCSCc1nc[nH]c1C)NC#N` , state its recorded potency estimated from few doses.
Result: 332 µM

Query: Return reported potency estimated from few doses; argument: COC(=O)C1=C(C)NC(C)=C(C(=O)OCCN(C)Cc2ccccc2)C1c1cccc([N+](=O)[O-])c1 (stereo not shown)
Result: 309 µM

Query: What does the record list as potency estimated from few doses for CC(=O)N1CCN(c2ccc(OCC3COC(Cn4ccnc4)(c4ccc(Cl)cc4Cl)O3)cc2)CC1 (stereo not shown) ?
Result: 98.8 µM

Query: What value of potency estimated from few doses has been recorded for this entry: CC(C)OC(=O)C(C)(C)Oc1ccc(C(=O)c2ccc(Cl)cc2)cc1 [Fenofibrate]
Result: 211 µM

Query: Bench note: what potency estimated from few doses did `N[C@@H](C(=O)N[C@@H]1C(=O)N2C(C(=O)O)=C(Cl)CS[C@H]12)c1ccccc1` show?
Result: > 100 µM

Query: Quick one: potency estimated from few doses of COc1ccc(CC(C)NCC(O)c2ccc(O)c(NC=O)c2)cc1 (stereo not shown) ?
Result: > 100 µM

Query: Look at this compound and give its reported potency estimated from few doses. `NC(N)=Nc1nc(CSCCC(N)=NS(N)(=O)=O)cs1`
Result: 387 µM

Query: For the compound `Nc1nc(N)c2nc(-c3ccccc3)c(N)nc2n1` , what potency estimated from few doses is on record?
Result: 411 µM

Query: Give its potency estimated from few doses value. Item: `COC(=O)[C@H]1[C@H]2C[C@@H]3c4[nH]c5cc(OC)ccc5c4CCN3C[C@H]2C[C@@H](OC(=O)c2cc(OC)c(OC)c(OC)c2)[C@@H]1OC`
Result: 89.1 µM

Query: Please give the measured potency estimated from few doses for this compound: Nc1ccc(S(N)(=O)=O)cc1 [Sulfanilamide]
Result: 250 µM

Query: Param item = `CC(C)C[C@H](NC(=O)[C@H](Cc1ccccc1)NC(=O)c1cnccn1)B(O)O` ; retrieve measured potency estimated from few doses.
Result: > 100 µM

Query: Given the entry CC(C)[C@H]1CC[C@H](C(=O)N[C@H](Cc2ccccc2)C(=O)O)CC1 [Nateglinide] , report its measured potency estimated from few doses.
Result: 111 µM

Query: Given the entry `CCOc1ccc2ccccc2c1C(=O)N[C@@H]1C(=O)N2[C@@H]1SC(C)(C)[C@@H]2C(=O)O` , report its measured potency estimated from few doses.
Result: 2010 µM

Query: Which potency estimated from few doses value is on record for `COc1ccc([C@@H]2Sc3ccccc3N(CCN(C)C)C(=O)[C@@H]2OC(C)=O)cc1` ?
Result: 460 µM

Query: Quick one: potency estimated from few doses of `CN1CCN(CC/C=C2/c3ccccc3Sc3ccc(S(=O)(=O)N(C)C)cc32)CC1` ?
Result: > 100 µM

Query: potency estimated from few doses lookup needed for NS(=O)(=O)c1cc(C(=O)O)c(NCc2ccco2)cc1Cl [Furosemide] , thanks.
Result: 304 µM

Query: Name the recorded potency estimated from few doses for CCC1(C)CC(=O)NC1=O (stereo not shown) [Ethosuximide] .
Result: 513 µM

Query: What potency estimated from few doses value was documented for this compound, `COc1ccc2c(c1)c(CC(=O)O)c(C)n2C(=O)c1ccc(Cl)cc1` ?
Result: 141 µM

Query: Entry under review: `C[C@H]1[C@H](NC(=O)/C(=N\OC(C)(C)C(=O)O)c2csc(N)n2)C(=O)N1S(=O)(=O)O` . Reported potency estimated from few doses?
Result: > 100 µM

Query: I would be grateful if you could share the reported potency estimated from few doses for Clc1ccc(COC(Cn2ccnc2)c2ccc(Cl)cc2Cl)c(Cl)c1 (stereo not shown) .
Result: 601 µM

Query: Return reported potency estimated from few doses; argument: `CCCCc1ncc(/C=C(\Cc2cccs2)C(=O)O)n1Cc1ccc(C(=O)O)cc1`
Result: > 100 µM

Query: Entry `COc1ccc2cc([C@H](C)C(=O)O)ccc2c1` : reported potency estimated from few doses = ?
Result: 217 µM

Query: Could you tell me which potency estimated from few doses is on file for `C[C@]12C=CC(=O)C=C1CC[C@@H]1[C@@H]2[C@@H](O)C[C@@]2(C)[C@H]1CC[C@]2(O)C(=O)CO` ?
Result: 335 µM

Query: Fill blank: measured potency estimated from few doses of the compound `CCOc1nc2cccc(C(=O)O)c2n1Cc1ccc(-c2ccccc2-c2nnn[nH]2)cc1` is ____.
Result: 145 µM

Query: Return reported potency estimated from few doses; argument: `CN1CCC[C@@H]1Cc1c[nH]c2ccc(CCS(=O)(=O)c3ccccc3)cc12`
Result: > 100 µM
